B1: TRAF3IP2 (parent)
chain: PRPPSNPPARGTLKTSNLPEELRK

Variants of: B1
Test: protein stability index of a GFP-peptide fusion (GPS, HEK-293T) (PSI 1-6); higher = more stable;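 note: lentivirally expressed fusions sorted by FACS into six bins by GFP to DsRed ratio, PSI derived from sequencing read proportions per bin multiplied by bin number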
Details: c terminus: a fixed tail appended
Metric name: protein stability index
Please give only the number in your answer, with no unit.

**Query** Which value of protein stability index has been reported for N17T in the records?
**Result** 4.21

**Query** // repeat for T12D and report
**Result** 4.88

**Query** And for P1N ?
**Result** 4.59

**Query** // repeat for R10F and report
**Result** 4.49

**Query** Also need N17G , thanks.
**Result** 4.82

**Query** Again, but for K14H
**Result** 5.22

**Query** What would you report for P1F ?
**Result** 4.31

**Query** Now give it for P1A too.
**Result** 4.49

**Query** Follow-up entry: E20Y
**Result** 3.95

**Query** Same for S5T
**Result** 4.56

**Query** Okay, and R10E ?
**Result** 4.47

**Query** Moving on to the next variant: P19R
**Result** 4.14

**Query** Proceed to P19M
**Result** 4.47

**Query** // same read-out, input: P8W
**Result** 4.22

**Query** Thanks! And E21L ?
**Result** 4.26

**Query** Moving on to the next variant: P4G
**Result** 4.54

**Query** Entry T15L please
**Result** 4.29

**Query** Can you handle N6C next?
**Result** 5.18

**Query** Next: T15A
**Result** 4.22

**Query** Input T15V
**Result** 4.48

**Query** Query P8E next
**Result** 4.81

**Query** And P1R ?
**Result** 4.44

The reported numbers originate from the supplement of paper PMC10567573.
